- Assay system: human recombinant serotonin (5-Hydroxytryptamine) 5-HT2C receptor (Homo sapiens)
- Construct: expressed in transfected cells; host or cells: CHO-K1 cells
- Sequence (P28335 33-458): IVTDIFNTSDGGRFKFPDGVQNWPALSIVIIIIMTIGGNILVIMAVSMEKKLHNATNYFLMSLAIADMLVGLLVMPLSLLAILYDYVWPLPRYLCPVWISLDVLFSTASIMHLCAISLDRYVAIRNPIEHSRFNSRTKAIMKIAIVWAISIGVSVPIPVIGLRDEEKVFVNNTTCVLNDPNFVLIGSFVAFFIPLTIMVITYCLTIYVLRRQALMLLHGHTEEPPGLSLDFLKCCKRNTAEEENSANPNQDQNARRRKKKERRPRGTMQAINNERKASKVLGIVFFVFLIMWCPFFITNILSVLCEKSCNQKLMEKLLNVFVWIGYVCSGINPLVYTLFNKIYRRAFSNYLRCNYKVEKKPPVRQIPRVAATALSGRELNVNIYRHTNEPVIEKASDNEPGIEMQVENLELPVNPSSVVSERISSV
- Assay info: Serotonin 5-HT2C radioligand binding ([3H]Mesulergine)
- Condition parameters: read-out: Serotonin 5-HT2C, inhibition of ligand binding (1 μM)
inhibition at 1 µM overview
Just the number please, in %, no unit attached.

Before answering, review these 2 worked examples.
{"columns": ["Compound", "inhibition at 1 µM / %"],
 "data": [
  ["COc1ccc(CCn2c3c(c4cc(C)ccc42)C2CCC(C3)N2C)cc1 (stereo not drawn)", 82],
  ["CN1C2CCC1c1c(n(CC(=O)c3ccc(Cl)cc3)c3ccc(Cl)cc13)C2 (stereo not drawn)", 81]
]}

Please give measured inhibition at 1 µM of the following entry: Cc1ccc2c(c1)c1c(n2CCc2ccccc2)CC2CCC1N2C (stereo not drawn)
79
